Tested on: HCT-15
I'd appreciate it if you could supply GI50 values for the items below.
Please give a number only; it is taken to be in µM.

In plain terms, CC(=O)CCC(=O)CC(O)(C(F)(F)F)C(F)(F)F has a documented GI50 of 20.1

In plain terms, CC#CS(=O)(=O)c1ccccc1 has a documented GI50 of 2.88

In plain terms, Oc1ccccc1/C=N/Nc1nnc2c3ccccc3c3ccccc3c2n1 has a documented GI50 of 73.6

In plain terms, CCN(CC)CCNc1ccc2ncn3c4cc(OC)c(OC)c(O)c4c(=O)c1c23 has a documented GI50 of 9.91

In plain terms, O=C1Oc2ccccc2C(=O)/C1=C\Nc1nc(-c2ccc(O)c(O)c2)cs1 has a documented GI50 of 3.39

In plain terms, CN1C2CCC1CC(=CCOC(c1ccc(F)cc1)c1ccc(F)cc1)C2 has a documented GI50 of 15.7

In plain terms, NC(CC1=CCC=CC1)C(=O)O (centres undefined) has a documented GI50 of 57.9

In plain terms, COc1ccc(NC(=S)NC(=O)c2ccc3c(c2)Sc2ccccc2O3)c([N+](=O)[O-])c1 has a documented GI50 of 24

In plain terms, COc1cc(CNc2ccc(SC)cc2)cc(OC)c1OC has a documented GI50 of 4.23

In plain terms, COCc1cc2c(cc1/C=C/[N+](=O)[O-])OCO2 has a documented GI50 of 19.7

In plain terms, COc1cc(/C=C/C(=O)c2ccc(NS(=O)(=O)c3cc([N+](=O)[O-])ccc3C)cc2)cc(OC)c1OC has a documented GI50 of 3.04

In plain terms, CC1=C[C@H](O)[C@@]2(C)[C@@H]([C@@H]1C)[C@H]1CC[C@@H]3[C@@]4(C)CC[C@H](O)C(C)(C)[C@@H]4CC[C@@]3(C)[C@]1(C)C[C@@H]2O has a documented GI50 of 19

In plain terms, O=C(c1nc2ccc(Cl)cc2[nH]c1=O)C(O)c1ccco1 (centres undefined) has a documented GI50 of 15.5

In plain terms, COc1cc(Nc2cnc3cc(N)ccc3n2)cc(OC)c1OC has a documented GI50 of 55.2

In plain terms, CC(C)(CN1CCCCC1)C(=O)CC(SCCS(=O)(=O)O)c1ccccc1 (centres undefined) has a documented GI50 of 8.57

In plain terms, Oc1c(CNCCCN2CCCC2)cc(Cl)c2cccnc12 has a documented GI50 of 2.09

In plain terms, CC1OC(O[C@H]2CC[C@]3(C=O)[C@H]4CC[C@]5(C)[C@H](C6=CC(=O)OC6)CC[C@]5(O)[C@@H]4C=C[C@]3(O)C2)CC(O)C1O (some centres undefined) has a documented GI50 of 0.289

In plain terms, O=C1c2ccccc2CC12Cc1ccc3c(c1C2)CCC3 (centres undefined) has a documented GI50 of 14.6

In plain terms, COc1ccc2c3c([nH]c2c1[N+](=O)[O-])C(C)N(C(=O)/C=C/c1ccccc1)CC3 (centres undefined) has a documented GI50 of 5.71

---

Tested on: HOP-62
test: NCI tumour cell line growth inhibition, 48 h
The source made the active and inactive calls. Rule as the data show it: active = GI50 up to about 1.1 µM and inactive = higher.
propertyName: GI50

In plain terms, O=c1oc(=O)c2oc3ccccc3oc1=2 has a documented GI50 of > 100 µM (inactive)

In plain terms, O=C1OC(c2ccccc2)=N/C1=C\c1ccc(Oc2ccc(Cl)c(Cl)c2)cc1 has a documented GI50 of 88.3 µM (inactive)

In plain terms, CC(C)(CN1CCCCC1)C(=O)CC(SCCS(=O)(=O)O)c1ccc(Br)cc1 (centres undefined) has a documented GI50 of 6.18 µM (inactive)

In plain terms, CCc1cccc(C(C)(C)C)c1NC(=S)N/C=C(/C#N)C(N)=O has a documented GI50 of > 100 µM (inactive)

In plain terms, COC(=O)C1(CCC(C)=O)CCCCCC1=O (centres undefined) has a documented GI50 of > 100 µM (inactive)

In plain terms, Oc1ccc(/C=N/NC(=S)Nc2cccnc2)nc1 has a documented GI50 of 12 µM (inactive)

In plain terms, O=C(O/N=C1/CCCC/C1=C\c1ccccc1)c1ccc(Cl)c(Cl)c1 has a documented GI50 of 52.5 µM (inactive)

In plain terms, COc1ccc(/C=C/c2nsc(/C=C/c3ccc(OC)cc3)n2)cc1 has a documented GI50 of > 100 µM (inactive)

In plain terms, Cc1ccc(-c2cc(-c3ccco3)c(C#N)c(O)n2)cc1 has a documented GI50 of 50.2 µM (inactive)
